Test system: 293T cells
Experiment: Fluorescent detection of Fluc-mRNA (cell transfection efficiency of LNP formulations)
Assay type: cell-based
Conditions: comparator YK-316
property: cell transfection efficiency, times that of YK-316
Answer format reminder: number followed by unit.

Quick one: cell transfection efficiency, times that of YK-316 of CCCCCCCCC(CCCCCCCC)COC(=O)CCCCCN(CCCCCC(=O)OCC(CCCCCCCC)CCCCCCCC)C[C@H](O)CN(CC)CCO [YK-312] ?
4.19 times

Quick one: cell transfection efficiency, times that of YK-316 of CCCCCCCCCCCOC(=O)CCCCCN(CCCC(=O)OCCCC(CCCCCCCCCC)CCCCCCCCCC)C[C@H](O)CN(CC)CCO [YK-310] ?
5.36 times

Quick one: cell transfection efficiency, times that of YK-316 of CCCCCCCCC(CCCCCCCC)COC(=O)CCCCCN(CCCCCC(=O)OCC(CCCCCCCC)CCCCCCCC)C[C@H](O)CN(C)CCO [YK-305] ?
5.70 times

Quick one: cell transfection efficiency, times that of YK-316 of CCCCCCC(CCCCCC)CCOC(=O)CCCCCCN(CCCCCCC(=O)OCCC(CCCCCC)CCCCCC)C[C@H](O)CN(CCO)CCO [YK-319] ?
5.09 times

Quick one: cell transfection efficiency, times that of YK-316 of CCCCCCCCC(CCCCCCCC)OC(=O)CCCCCN(CCCCCC(=O)OC(CCCCCCCC)CCCCCCCC)C[C@H](O)CN(CCO)CCO [YK-318] ?
2.33 times

====

Tested on: 293T cells
Experiment: Cell survival rate determination (CCK-8)
Format: cell-based
Conditions: difference of survival rates; comparator compound 23
Hi, to clarify the labels: MET covers cell survival rate higher than compound 23 from 10% upward, NOT MET covers anything below 10%.

Examples from the recorded data:
molecule: CCCCCCCCC(CCCCCCCC)COC(=O)CCCCCN(CCCCCC(=O)OCC(CCCCCCCC)CCCCCCCC)C[C@H](O)CN(C)CCO [YK-305]
tested system: 293T cells
group label: MET
//
molecule: CCCCCCC(CCCCCC)CCOC(=O)CCCCCCN(CCCCCCC(=O)OCCC(CCCCCC)CCCCCC)C[C@H](O)CN(CCO)CCO [YK-319]
tested system: 293T cells
group label: NOT MET
//
molecule: CCCCCCCCC(CCCCCCCC)OC(=O)CCCCCN(CCCCCC(=O)OC(CCCCCCCC)CCCCCCCC)C[C@H](O)CN(CCO)CCO [YK-318]
tested system: 293T cells
group label: NOT MET

Has CCCCCCCCC(CCCCCCCC)COC(=O)CCCCCN(CCCCCC(=O)OCC(CCCCCCCC)CCCCCCCC)C[C@H](O)CN(CC)CCO [YK-312] a recorded cell survival rate higher than compound 23 greater than or equal to 10%?
NOT MET

Has CCCCCCCCCCCOC(=O)CCCCCN(CCCC(=O)OCCCC(CCCCCCCCCC)CCCCCCCCCC)C[C@H](O)CN(CC)CCO [YK-310] a recorded cell survival rate higher than compound 23 greater than or equal to 10%?
MET

====

Assay: Particle size and polydispersity index (PDI) of lipid nanoparticles by dynamic light scattering
Format: physicochemical
Conditions: LNP formulation prepared from the cationic lipid, 25° C.
property: PDI (%)
Write the answer as a number in %, unit excluded.

Take a look at these entries with their results.
compound: CCCCCCCCC(CCCCCCCC)OC(=O)CCCCCN(CCCCCC(=O)OC(CCCCCCCC)CCCCCCCC)C[C@H](O)CN(CC)CCO
PDI (%): 17.7

compound: CCCCCCCCCCOC(=O)CCCN(CCCCCC(=O)OCCC(CCCCCC)CCCCCC)C[C@H](O)CN(C)CCO
PDI (%): 13.4

compound: CCCCCCCCC(CCCCCCCC)OC(=O)CCCCCCCN(CCCCCCCC(=O)OC(CCCCCCCC)CCCCCCCC)C[C@H](O)CN(CC)CCO
PDI (%): 24.6

Consider the additional compound presented here.
Quick one: PDI (%) of CCCCCCCCCCCCC(O)CN(C)CCCCCC(=O)OCC(CCCCCC)CCCCCCCC (stereo not shown) [HHMA, reference compound] ?
19.3

====

Test system: 293T cells
Assay: Fluorescent detection of Fluc-mRNA (cell transfection efficiency of LNP formulations)
Assay type: cell-based
Settings: comparator YK-302
Protocol: Cell recovery and passage: 293T cells were recovered, cultured in a culture dish, and passaged to the required number of cells. Seeding plate: The cells in the culture dish were digested and counted. Cells were spread in a 96-well plate at 10,000 cells per well and in a 12-well plate at 150,000 cells per well. Cells were cultured overnight until the cells adhered to the wall. Cell recovery and passage: the method was the same as in Example 3. Seeding plate: the method was the same as in Example 3. […]
Collected cell transfection efficiency, times that of YK-302 values appear next to each entry.
Write the answer as a number in times, unit excluded.

Take a look at these entries with their results.
molecule: CCCCCCC(CCCCCC)CCOC(=O)CCCCCCN(CCCCCCC(=O)OCCC(CCCCCC)CCCCCC)C[C@H](O)CN(CCO)CCO
value: 880.83
//
molecule: CCCCCCCCC(CCCCCCCC)OC(=O)CCCCCN(CCCCCC(=O)OC(CCCCCCCC)CCCCCCCC)C[C@H](O)CN(CCO)CCO
value: 402.84
//
molecule: CCCCCCCCCCCOC(=O)CCCCCN(CCCC(=O)OCCCC(CCCCCCCCCC)CCCCCCCCCC)C[C@H](O)CN(CC)CCO
value: 928.69

Consider the additional compound presented here.
Notebook: pull reported cell transfection efficiency, times that of YK-302 for 293T cells, entry `CCCCCCCCC(CCCCCCCC)COC(=O)CCCCCN(CCCCCC(=O)OCC(CCCCCCCC)CCCCCCCC)C[C@H](O)CN(CC)CCO`
725.34

====

Tested on: 293T cells
Assay: Cell survival rate determination (CCK-8)
Format: cell-based
Conditions: difference of survival rates; comparator compound 21
property: cell survival rate higher than compound 21 (%)
Write the answer as a number in %, unit excluded.

Take a look at these entries with their results.
molecule: CCCCCCCCC(CCCCCCCC)OC(=O)CCCCCN(CCCCCC(=O)OC(CCCCCCCC)CCCCCCCC)C[C@H](O)CN(CCO)CCO
value: 5.35
//
molecule: CCCCCCC(CCCCCC)CCOC(=O)CCCCCCN(CCCCCCC(=O)OCCC(CCCCCC)CCCCCC)C[C@H](O)CN(CCO)CCO
value: 5.00
//
molecule: CCCCCCCCC(CCCCCCCC)COC(=O)CCCCCN(CCCCCC(=O)OCC(CCCCCCCC)CCCCCCCC)C[C@H](O)CN(C)CCO
value: 11.97

Notebook: pull reported cell survival rate higher than compound 21 for 293T cells, entry `CCCCCCCCCCCOC(=O)CCCCCN(CCCC(=O)OCCCC(CCCCCCCCCC)CCCCCCCCCC)C[C@H](O)CN(CC)CCO`
11.89

Notebook: pull reported cell survival rate higher than compound 21 for 293T cells, entry `CCCCCCCCC(CCCCCCCC)COC(=O)CCCCCN(CCCCCC(=O)OCC(CCCCCCCC)CCCCCCCC)C[C@H](O)CN(CC)CCO`
6.75

====

Tested on: 293T cells
Experiment: Cell survival rate determination (CCK-8)
Type: cell-based
Settings: difference of survival rates; comparator YK-321
Hi, to clarify the labels: 1 (yes) covers cell survival rate higher than YK-321 from 5% upward, 0 (no) covers anything below 5%.

Examples from the recorded data:
molecule: CCCCCCCCC(CCCCCCCC)COC(=O)CCCCCN(CCCCCC(=O)OCC(CCCCCCCC)CCCCCCCC)C[C@H](O)CN(C)CCO [YK-305]
group label: 1 (yes)
//
molecule: CCCCCCC(CCCCCC)CCOC(=O)CCCCCCN(CCCCCCC(=O)OCCC(CCCCCC)CCCCCC)C[C@H](O)CN(CCO)CCO [YK-319]
group label: 0 (no)

Has CCCCCCCCC(CCCCCCCC)COC(=O)CCCCCN(CCCCCC(=O)OCC(CCCCCCCC)CCCCCCCC)C[C@H](O)CN(CC)CCO [YK-312] a recorded cell survival rate higher than YK-321 greater than or equal to 5%?
0 (no)

Has CCCCCCCCC(CCCCCCCC)OC(=O)CCCCCN(CCCCCC(=O)OC(CCCCCCCC)CCCCCCCC)C[C@H](O)CN(CCO)CCO [YK-318] a recorded cell survival rate higher than YK-321 greater than or equal to 5%?
0 (no)

Has CCCCCCCCCCCOC(=O)CCCCCN(CCCC(=O)OCCCC(CCCCCCCCCC)CCCCCCCCCC)C[C@H](O)CN(CC)CCO [YK-310] a recorded cell survival rate higher than YK-321 greater than or equal to 5%?
1 (yes)

====

Collected expression amount, times that of YK-321 values appear next to each entry.
Test system: female BALB/C mice
Assay: Live imaging in mice: protein expression of Fluc-mRNA delivered by LNP formulations
Type: in vivo
Conditions: 7 d; comparator YK-321
Write the answer as a number in times, unit excluded.

molecule: CCCCCCCCC(CCCCCCCC)COC(=O)CCCCCN(CCCCCC(=O)OCC(CCCCCCCC)CCCCCCCC)C[C@H](O)CN(CC)CCO
expression amount, times that of YK-321 [times]: 16.02
--
molecule: CCCCCCC(CCCCCC)CCOC(=O)CCCCCCN(CCCCCCC(=O)OCCC(CCCCCC)CCCCCC)C[C@H](O)CN(CCO)CCO
expression amount, times that of YK-321 [times]: 15.92
--
molecule: CCCCCCCCC(CCCCCCCC)OC(=O)CCCCCN(CCCCCC(=O)OC(CCCCCCCC)CCCCCCCC)C[C@H](O)CN(CCO)CCO
expression amount, times that of YK-321 [times]: 7.69

Quick one: expression amount, times that of YK-321 of `CCCCCCCCC(CCCCCCCC)COC(=O)CCCCCN(CCCCCC(=O)OCC(CCCCCCCC)CCCCCCCC)C[C@H](O)CN(C)CCO` ?
19.29
